study system: hCXCR1 (Homo sapiens, UniProt P25024)
Construct: purchased Biosignal / Biosignal Packard; alternatively Euroscreen; host or cells: CHO cells (membranes)
Sequence (P25024 whole entry): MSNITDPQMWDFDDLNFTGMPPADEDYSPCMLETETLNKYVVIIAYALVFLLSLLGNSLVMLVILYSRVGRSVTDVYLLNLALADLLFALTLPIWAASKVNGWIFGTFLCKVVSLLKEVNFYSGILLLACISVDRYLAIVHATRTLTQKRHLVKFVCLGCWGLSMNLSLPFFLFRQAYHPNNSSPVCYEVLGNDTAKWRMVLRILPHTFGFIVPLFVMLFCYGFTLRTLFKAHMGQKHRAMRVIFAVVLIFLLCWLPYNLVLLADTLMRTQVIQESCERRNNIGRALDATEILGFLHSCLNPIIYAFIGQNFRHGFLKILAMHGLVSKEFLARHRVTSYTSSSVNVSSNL
protocol notes: CXCR1 SPA assay ([125I]-IL-8 binding, hCXCR1-CHO membranes; incl. alternative Biosignal Packard and Euroscreen protocols)
observable: Ki (µM)
Your answer is read as µM, so omit the unit and give the number.

Ki for `CC[C@@H](Nc1nsnc1Nc1cccc(C(=O)N(C)C)c1O)c1cc(C(C)C)co1` is 0.808

###

As shown below, each of these compounds has a reported pEC50 value.
study system: CCR7 (Homo sapiens, UniProt P32248)
Construct: expressed in transfected cells; host or cells: Ba/F3 cells (membranes prepared in house)
Sequence (P32248 25-378, species assumed): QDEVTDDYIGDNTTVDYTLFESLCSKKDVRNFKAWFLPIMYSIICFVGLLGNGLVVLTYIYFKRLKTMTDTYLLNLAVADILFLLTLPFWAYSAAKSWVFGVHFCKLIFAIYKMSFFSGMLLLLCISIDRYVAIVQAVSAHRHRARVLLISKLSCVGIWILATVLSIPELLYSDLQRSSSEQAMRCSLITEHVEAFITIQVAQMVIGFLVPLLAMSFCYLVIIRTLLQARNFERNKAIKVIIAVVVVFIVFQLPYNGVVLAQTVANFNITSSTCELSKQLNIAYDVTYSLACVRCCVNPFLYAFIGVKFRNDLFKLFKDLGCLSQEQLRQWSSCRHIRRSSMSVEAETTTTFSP
protocol notes: CCR7 [35S]GTPγS exchange assay (SPA, Ba/F3-CCR7 membranes, 2 nM MIP-3)
Format: biochemical
Method: CCR7 Membrane Preparation. Ba/F3-CCR7 membranes were prepared as previously described (Hipkin et al., J. Biol. Chem., 272, 1997, 13869-76). […] The exchange of guanosine 5′-[γ-^35S]triphospate ([^35S]GTPγS, triethylammonium salt; specific activity=1250 Ci/mmol; NEN Boston, Mass.) was measured using a scintillation proximity assay (SPA) as previously described (Cox, et. al., Mol. Pharmacol., 59, 2001, 707-15). […]
By convention, pEC50 is the negative base-10 log of a molar concentration.

Noted pEC50 for Cc1ccc([C@H](Nc2nsnc2Nc2cccc(C(=O)N(C)C)c2O)C(C)C)o1 [Example 3] , tested on CCR7 (Homo sapiens, UniProt P32248): 6.06

Let us move to another entry and its pEC50.
Noted pEC50 for Cc1ccc([C@H](Nc2nsnc2Nc2cccc(C(=O)N(C)C)c2O)C(C)(C)C)o1 [Example 6] , tested on CCR7 (Homo sapiens, UniProt P32248): 7.66
